# System: CAL-51
# experiment: drug sensitivity score (DSS), CellTiter-Blue viability (DSS (AUC-based score)); higher = stronger viability inhibition; extreme values may be limits of the assay
# measurementParameters: incubation time: 72 h
Entries annotated with measured drug sensitivity score

compound	drug sensitivity score
Cc1ccc(-c2cc(C(F)(F)F)nn2-c2ccc(S(N)(=O)=O)cc2)cc1 [Celecoxib]	0
C=CC(=O)N1CCC[C@@H](n2nc(-c3ccc(Oc4ccccc4)cc3)c3c(N)ncnc32)C1	0
C=CC(=O)Nc1cc2c(Nc3ccc(F)c(Cl)c3)ncnc2cc1OCCCN1CCOCC1 [Canertinib]	3.66
CCc1cncnc1N1CCN(Cc2nc3ccc(C(F)(F)F)cc3[nH]2)CC1	0
CCCCC(=O)OCC(=O)[C@]1(O)Cc2c(O)c3c(c(O)c2[C@@H](O[C@H]2C[C@H](NC(=O)C(F)(F)F)[C@H](O)[C@H](C)O2)C1)C(=O)c1c(OC)cccc1C3=O [Valrubicin]	20.6
CC(=O)Nc1cccc(-n2c(=O)n(C3CC3)c(=O)c3c(Nc4ccc(I)cc4F)n(C)c(=O)c(C)c32)c1	7.72

====

Measured normalised response of individual entries
# Test system: CAL-148
# experiment: normalised response (% of control), CellTox Green; higher = less cell death (100 = DMSO, 0 = benzethonium chloride kill control)
# measurementParameters: incubation time: 72 h

compound	unitsLabel	normalised response
O=C(O)C(=O)O.[NH-][C@@H]1CCCC[C@H]1[NH-].[Pt+2] [Oxaliplatin] (100 nM)	%	61.1
COc1cc([C@@H]2c3cc4c(cc3[C@@H](O[C@@H]3O[C@@H]5CO[C@@H](c6cccs6)O[C@H]5[C@H](O)[C@H]3O)[C@H]3COC(=O)[C@H]23)OCO4)cc(OC)c1O [Teniposide] (1000 nM)	%	21.2
Nc1nc2[nH]cc(CCc3ccc(C(=O)N[C@@H](CCC(=O)O)C(=O)O)cc3)c2c(=O)[nH]1 [Pemetrexed] (100 nM)	%	99.7
C=CC(=O)N1CCC[C@@H](n2nc(-c3ccc(Oc4ccccc4)cc3)c3c(N)ncnc32)C1 [Ibrutinib] (10 nM)	%	84.5
CC[C@H](Nc1ncnc2[nH]cnc12)c1nc2cccc(F)c2c(=O)n1-c1ccccc1 [GS-1101] (1000 nM)	%	80.2
CC1=C(/C=C/C(C)=C/C=C/C(C)=C/C(=O)O)C(C)(C)CCC1 [Tretinoin] (10000 nM)	%	102
C=CC(=O)N1CCC[C@@H](n2nc(-c3ccc(Oc4ccccc4)cc3)c3c(N)ncnc32)C1 [Ibrutinib] (1000 nM)	%	86.6
COc1cc2nccc(Oc3ccc(NC(=O)Nc4cc(C)on4)c(Cl)c3)c2cc1OC [Tivozanib] (1000 nM)	%	104
COc1cc([C@@H]2c3cc4c(cc3[C@@H](O[C@@H]3O[C@@H]5CO[C@@H](c6cccs6)O[C@H]5[C@H](O)[C@H]3O)[C@H]3COC(=O)[C@H]23)OCO4)cc(OC)c1O [Teniposide] (10000 nM)	%	38.7
CNC(=O)c1cc(Oc2ccc(NC(=O)Nc3cc(C(C)(C)C)nn3-c3ccc4ncccc4c3)c(F)c2)ccn1 [Rebastinib] (10 nM)	%	84.8
CCc1cncnc1N1CCN(Cc2nc3ccc(C(F)(F)F)cc3[nH]2)CC1 (100 nM)	%	108
COc1cc2c(NC3CCN(C(C)C)CC3)nc(C3CCCCC3)nc2cc1OCCCN1CCCC1 [UNC0638] (1000 nM)	%	93
O=C(Cc1ccc(-c2ccc(OCCN3CCOCC3)cc2)cn1)NCc1ccccc1 [KX2-391] (100 nM)	%	65.5
CC(=O)Nc1cccc(-n2c(=O)n(C3CC3)c(=O)c3c(Nc4ccc(I)cc4F)n(C)c(=O)c(C)c32)c1 [Trametinib] (250 nM)	%	86

====

# System: MDA-MB-436
# experiment: normalised response (% of control), CellTox Green; higher = less cell death (100 = DMSO, 0 = benzethonium chloride kill control)
# measurementParameters: incubation time: 72 h
The entries below come with measured normalised response values attached.
measurementType: normalised response (%)

> print(dat)
                                   compound      measurementtype  unitslabel  assayvalue
1  CC(=O)Nc1cccc(-n2c(=O)n(C3CC3)c(=O)c3c(Nc4ccc(I)cc4F)n(C)c(=O)c(C)c32)c1 [Trametinib] (2.5 nM)  normalised response           %         101
2  CCCS(=O)(=O)Nc1ccc(F)c(C(=O)c2c[nH]c3ncc(-c4ccc(Cl)cc4)cc23)c1F [Vemurafenib] (10000 nM)  normalised response           %        92.7
3  Cc1cnc(NC(=O)Nc2cc(Br)c(C)cc2OC[C@@H]2CNCCO2)cn1 [Rabusertib] (100 nM)  normalised response           %         110
4  COc1cc2nccc(Oc3ccc(NC(=O)Nc4cc(C)on4)c(Cl)c3)c2cc1OC [Tivozanib] (10000 nM)  normalised response           %         104
5  COc1cc2c(NC3CCN(C(C)C)CC3)nc(C3CCCCC3)nc2cc1OCCCN1CCCC1 [UNC0638] (100 nM)  normalised response           %        94.6
6  Oc1ncc(N(CCCl)CCCl)c(O)n1 [Uracil mustard] (1000 nM)  normalised response           %        98.7
7  CNC(=O)c1cc(Oc2ccc(NC(=O)Nc3cc(C(C)(C)C)nn3-c3ccc4ncccc4c3)c(F)c2)ccn1 [Rebastinib] (1000 nM)  normalised response           %        85.7

====

# Tested on: MDA-MB-231
# experiment: drug sensitivity score (DSS), CellTox Green (DSS (AUC-based score)); higher = stronger drug effect (viability inhibition or cytotoxicity); extreme values may be limits of the assay
# measurementParameters: incubation time: 72 h

compound	drug sensitivity score
COc1cc2c(NC3CCN(C(C)C)CC3)nc(C3CCCCC3)nc2cc1OCCCN1CCCC1	9.02
O=C(Cc1ccc(-c2ccc(OCCN3CCOCC3)cc2)cn1)NCc1ccccc1	0
Nc1ncn([C@H]2C[C@H](O)[C@@H](CO)O2)c(=O)n1	0
CCCCC(=O)OCC(=O)[C@]1(O)Cc2c(O)c3c(c(O)c2[C@@H](O[C@H]2C[C@H](NC(=O)C(F)(F)F)[C@H](O)[C@H](C)O2)C1)C(=O)c1c(OC)cccc1C3=O	0
N#Cc1ccc(C(c2ccc(C#N)cc2)n2cncn2)cc1	0
CCc1cncnc1N1CCN(Cc2nc3ccc(C(F)(F)F)cc3[nH]2)CC1	0
CC1=C(/C=C/C(C)=C/C=C/C(C)=C/C(=O)O)C(C)(C)CCC1	3.64
COc1cc([C@@H]2c3cc4c(cc3[C@@H](O[C@@H]3O[C@@H]5CO[C@@H](c6cccs6)O[C@H]5[C@H](O)[C@H]3O)[C@H]3COC(=O)[C@H]23)OCO4)cc(OC)c1O [Teniposide]	10.8
C=CC(=O)Nc1cc2c(Nc3ccc(F)c(Cl)c3)ncnc2cc1OCCCN1CCOCC1	3.46
CNC(=O)c1cc(Oc2ccc(NC(=O)Nc3cc(C(C)(C)C)nn3-c3ccc4ncccc4c3)c(F)c2)ccn1	0

====

Parameter: normalised response. Scope: all listed entries.
# Tested on: HDQ-P1
# experiment: normalised response (% of control), CellTiter-Glo; higher = more viable cells (100 = DMSO, 0 = benzethonium chloride kill control)
# measurementParameters: incubation time: 72 h
measurementType: normalised response (%)

> print(dat)
                                   compound      measurementtype  assayvalue
1  N#Cc1ccc(C(c2ccc(C#N)cc2)n2cncn2)cc1 [Letrozole] (1000 nM)  normalised response         102
2  CC1=C(/C=C/C(C)=C/C=C/C(C)=C/C(=O)O)C(C)(C)CCC1 [Tretinoin] (10 nM)  normalised response        94.4
3  Nc1nc2[nH]cc(CCc3ccc(C(=O)N[C@@H](CCC(=O)O)C(=O)O)cc3)c2c(=O)[nH]1 [Pemetrexed] (10 nM)  normalised response        99.5
4  N#Cc1ccc(C(c2ccc(C#N)cc2)n2cncn2)cc1 [Letrozole] (1 nM)  normalised response        94.1

====

# Test system: MDA-MB-453
# experiment: normalised viability (% of control), CellTiter-Blue; higher = more viable cells (about 100 = DMSO control)
# measurementParameters: 300 nM; incubation time: 72 h
Here the recorded normalised viability is given for each entry.

compound	normalised viability (%)
COc1cc2nccc(Oc3ccc(NC(=O)Nc4cc(C)on4)c(Cl)c3)c2cc1OC [Tivozanib]	95.8
C[C@H]1C[C@@H]2[C@H]([C@@H](O)C[C@@]3(C)[C@H]2CC[C@]3(O)C(=O)CO)[C@@]2(C)C=CC(=O)C=C12 [Methylprednisolone]	83.3
Oc1ncc(N(CCCl)CCCl)c(O)n1 [Uracil mustard]	104
CCc1cncnc1N1CCN(Cc2nc3ccc(C(F)(F)F)cc3[nH]2)CC1	101
CCCCC(=O)OCC(=O)[C@]1(O)Cc2c(O)c3c(c(O)c2[C@@H](O[C@H]2C[C@H](NC(=O)C(F)(F)F)[C@H](O)[C@H](C)O2)C1)C(=O)c1c(OC)cccc1C3=O [Valrubicin]	73.9
C1CN1c1nc(N2CC2)nc(N2CC2)n1 [Triethylenemelamine]	108
